B1: library; numbered along this chain (parent)
chain: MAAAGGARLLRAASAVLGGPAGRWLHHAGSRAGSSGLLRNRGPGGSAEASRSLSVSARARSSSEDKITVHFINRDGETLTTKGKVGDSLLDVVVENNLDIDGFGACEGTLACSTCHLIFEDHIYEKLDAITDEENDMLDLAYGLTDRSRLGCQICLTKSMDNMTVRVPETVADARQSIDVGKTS

Variants of: B1
protocolDetails: scaled log2 fold change in cell abundance, elesclomol vs control (0 = silent mean, 1 = nonsense mean) (scaled log2 ratio); higher = higher viability under elesclomol (loss of FDX1 cuproptosis function);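 further: variant abundance is its share of total variant reads in each endpoint sample, from next-generation sequencing of the integrated ORF PCR-amplified out of genomic DNA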
appliedConditions: with HEK293T FDX1 KO; elesclomol 40 nM; glucose 10 mM; 11 days
Let's look at some variants and their measured scaled log2 fold change.
Enter the number alone.

S61D 1.93
S50N -0.357
S62N -0.479

Query string: Need scaled log2 fold change, item L138Q
Result string: 0.34

Query string: Need scaled log2 fold change, item S184N
Result string: 0.0759

Query string: Need scaled log2 fold change, item R58D
Result string: -0.303

Query string: Need scaled log2 fold change, item S14E
Result string: 0.442

Query string: Need scaled log2 fold change, item S54K
Result string: -1

Query string: Need scaled log2 fold change, item D173V
Result string: -0.196

Query string: Need scaled log2 fold change, item V94E
Result string: -0.058

Query string: Need scaled log2 fold change, item S35D
Result string: 1.13

Query string: Need scaled log2 fold change, item R39G
Result string: 0.061

Query string: Need scaled log2 fold change, item D101K
Result string: 0.803

Query string: Need scaled log2 fold change, item Q153I
Result string: -0.458

Query string: Need scaled log2 fold change, item S88C
Result string: 1.32

Query string: Need scaled log2 fold change, item I130W
Result string: -0.314

Query string: Need scaled log2 fold change, item L37D
Result string: -0.369

Query string: Need scaled log2 fold change, item P43K
Result string: 0.445

Query string: Need scaled log2 fold change, item D139I
Result string: 0.722

Query string: Need scaled log2 fold change, item G19E
Result string: -0.028

Query string: Need scaled log2 fold change, item D161W
Result string: -0.0327
